system: U2OS; assay: Multiplex assay against U2OS; assay type: toxicity, cell-based; details: human, 48 h, 1 µM, compound concentration 1 uM, replicate 2
So basically, if Population Fragmented Nuclei (%) comes in under 20% it's 1, and if it's 20% or more it's -1.

Examples with answers:
compound="CN1CCN2c3ccccc3Cc3ccccc3C2C1.Cl (configuration not stated) [MIANSERIN HYDROCHLORIDE]" discrete_label=1
compound="COc1ccc2[nH]c(I)c(CCNC(C)=O)c2c1 [IODOMELATONIN]" discrete_label=1
compound=CC(C)(O)C(=O)N1CCN(c2ccc(C(F)(F)F)c(C3=C(c4c[nH]c5ccccc45)C(=O)NC3=O)c2)CC1 discrete_label=1

Ask: For CN1CCC(C(=O)c2cccc(NC(=O)c3c(F)cc(F)cc3F)n2)CC1 , is the recorded Population Fragmented Nuclei (%) below the cut-off of 20%?
Result: -1

Ask: For COCCn1c(C)c(C)s/c1=N\C(=O)C1C(C)(C)C1(C)C , is the recorded Population Fragmented Nuclei (%) below the cut-off of 20%?
Result: 1

Ask: For O=c1ccc2ccc(OCCCCN3CCN(c4cccc5sccc45)CC3)cc2[nH]1 [BREXPIPRAZOLE] , is the recorded Population Fragmented Nuclei (%) below the cut-off of 20%?
Result: -1

###

system: U2OS; assay: Multiplex assay against U2OS; format: toxicity, cell-based; conditions: human, 24 h, 1 µM, compound concentration 1 uM, replicate 2
measurement-type: Population Mitochondria Different-Phenotype (%)
Numbers only, in %.

Dear colleague, could you send me Population Mitochondria Different-Phenotype (%) for each of the items below? Thanks.
1. Nc1nc(-c2ccco2)c2cnn(Cc3ccccc3F)c2n1
2. CN1CCN2c3ccccc3Cc3ccccc3C2C1.Cl (stereo not drawn) [MIANSERIN HYDROCHLORIDE]
3. Nc1nc(CC(=O)Nc2ccc(CCNC[C@H](O)c3ccccc3)cc2)cs1 [MIRABEGRON]

Result:
1: 3; 2: 3; 3: 3

###

system: HEK-293T; assay: Multiplex assay against HEK293T; assay type: toxicity, cell-based; conditions: human, 24 h, 1 µM, compound concentration 1 uM, replicate 2
measurement-type: Population Fragmented Nuclei (%)
Answers are plain numbers, in %.

compound="COc1ccc2[nH]c(I)c(CCNC(C)=O)c2c1 [IODOMELATONIN]" target_or_system=HEK-293T measured_value=9
compound=CN(C)C(=O)Cn1cc(-c2ccc(-c3nnc4ccccn34)cc2)cn1 target_or_system=HEK-293T measured_value=9
compound="CN(C)C/C=C/C(=O)Nc1ccc(C(=O)N2CCCC(Nc3ncc(Cl)c(-c4c[nH]c5ccccc45)n3)C2)cc1 (stereo not given)" target_or_system=HEK-293T measured_value=9
compound=Nc1nc(-c2ccco2)c2cnn(Cc3ccccc3F)c2n1 target_or_system=HEK-293T measured_value=9

Could you now consider this next compound?
Ask: Check HEK-293T data and give Population Fragmented Nuclei (%) for COc1cc(Nc2ncc3c(n2)-c2ccc(Cl)cc2C(c2c(F)cccc2OC)=NC3)ccc1C(=O)O [ALISERTIB] .
Result: 9

###

tested on: U2OS; assay: Multiplex assay against U2OS; format: toxicity, cell-based; settings: human, 48 h, 1 µM, compound concentration 1 uM, replicate 2
measurement-type: Population Membrane Permeable-Phenotype (%)
Numbers only, in %.

See these solved cases before continuing.
molecule=CN1CCN(c2ccc(Nc3c4ccccc4nc4ccccc34)cc2)CC1.Cl.Cl.O measured_value=19
molecule="CN(C)C/C=C/C(=O)Nc1ccc(C(=O)N2CCCC(Nc3ncc(Cl)c(-c4c[nH]c5ccccc45)n3)C2)cc1 (stereo not given)" measured_value=3
molecule=COc1cc2nc(N3CCN(C(=O)COc4c(OC)cccc4C(C)C)CC3)nc(N)c2cc1OC.Cl.Cl measured_value=7

Dear colleague, could you send me Population Membrane Permeable-Phenotype (%) for each of the items below? Thanks.
1. Cc1nn(C)c2nc(NNC(=O)Nc3cc(Cl)nc(Cl)c3)cc(C(C)C)c12
2. CCCCCCNC(=O)Nc1ccc(S(=O)(=O)Nc2ccc(CCNC[C@H](O)COc3ccc(O)cc3)cc2)cc1

Result:
[8, 12]

###

system: HEK-293T; assay: Multiplex assay against HEK293T; type: toxicity, cell-based; conditions: human, 24 h, 1 µM, compound concentration 1 uM, replicate 1
measurement-type: Population Apoptotic (%)
One number for each entry, in %.

See these solved cases before continuing.
compound=COc1cc2nc(N3CCN(C(=O)COc4c(OC)cccc4C(C)C)CC3)nc(N)c2cc1OC.Cl.Cl target_or_system=HEK-293T measured_value=35
compound="CN1CCN2c3ccccc3Cc3ccccc3C2C1.Cl (stereo not drawn) [MIANSERIN HYDROCHLORIDE]" target_or_system=HEK-293T measured_value=22
compound=CC(F)(F)CN1CCOc2c(nn(-c3ccccc3Cl)c2-c2ccc(Cl)cc2)C1=O target_or_system=HEK-293T measured_value=25
compound=Cc1cc(O)c(-c2ccc([C@@H](C)CN(C)C)cc2)c2c1[nH]c(=O)c1sccc12 target_or_system=HEK-293T measured_value=65
compound=O=C(Nc1cc(-c2ccccc2)nn1-c1ccccc1F)c1ccc([N+](=O)[O-])cc1 target_or_system=HEK-293T measured_value=33

Dear colleague, could you send me Population Apoptotic (%) for each of the items below? Thanks.
1. S=C(NCCCc1c[nH]cn1)NCCCN(Cc1ccc(Cl)c(Cl)c1)c1ccc(Br)cn1
2. N[C@](CC1c2ccccc2Oc2ccccc21)(C(=O)O)[C@H]1C[C@@H]1C(=O)O
3. CCC(=O)OCC(=O)[C@@]1(OC(=O)CC)[C@@H](C)C[C@H]2[C@@H]3CCC4=CC(=O)C=C[C@]4(C)[C@@]3(Cl)[C@@H](O)C[C@@]21C [BECLOMETHASONE DIPROPIONATE]

Result:
39
21
32

###

system: Fibroblast; test: Multiplex assay against human fibroblast; assay type: toxicity, cell-based; conditions: 12 h, 1 µM, compound concentration 1 uM, replicate 1
Non-standard residues stand in square brackets, D forms with d. Residues, ends and D or L forms follow the SMILES beside them.
measurement-type: Population Normal (%)
One number for each entry, in %.

molecule=COc1cc2nc(N3CCN(C(=O)COc4c(OC)cccc4C(C)C)CC3)nc(N)c2cc1OC.Cl.Cl measurement_type="Population Normal (%)" units_text=% measured_value=95
molecule="Cc1cc(-c2ccc3c(c2)CC[C@H]3N2CC3(CCN(C(=O)Cc4cn5cc(C)sc5n4)CC3)C2)ncn1 [PF-5190457]" measurement_type="Population Normal (%)" units_text=% measured_value=96
molecule="COc1cc2nc(N3CCN(C(=O)c4ccco4)CC3)nc(N)c2cc1OC.Cl [PRAZOSIN HYDROCHLORIDE]" measurement_type="Population Normal (%)" units_text=% measured_value=98
molecule="O=c1ccc2ccc(OCCCCN3CCN(c4cccc5sccc45)CC3)cc2[nH]1 [BREXPIPRAZOLE]" measurement_type="Population Normal (%)" units_text=% measured_value=97
molecule="Cl.Cl.OCCOCCN1CCN(C(c2ccccc2)c2ccc(Cl)cc2)CC1 (configuration not stated) [HYDROXYZINE HYDROCHLORIDE]" measurement_type="Population Normal (%)" units_text=% measured_value=98

Dear colleague, could you send me Population Normal (%) for each of the items below? Thanks.
1. Cc1cc(=O)n(C)c2cc(N3C(=O)CC[C@H](NS(=O)(=O)CC(C)C)[C@H]3c3ccc(Cl)cc3)ccc12
2. N[C@](CC1c2ccccc2Oc2ccccc21)(C(=O)O)[C@H]1C[C@@H]1C(=O)O
3. CC(C)(C)c1ccc(CSc2cnn(C(C)(C)C)c(=O)c2Cl)cc1 [PYRIDABEN]
4. COCCCN1CCC(NC(=O)c2cc(Cl)c(N)c3c2OCC3)CC1 [PRUCALOPRIDE]
5. Cc1sc2c(c1C)C(c1ccc(Cl)cc1)=N[C@H](CC(=O)OC(C)(C)C)c1nnc(C)n1-2
6. CC(F)(F)CN1CCOc2c(nn(-c3ccccc3Cl)c2-c2ccc(Cl)cc2)C1=O
7. Cc1nn(C)c2nc(NNC(=O)Nc3cc(Cl)nc(Cl)c3)cc(C(C)C)c12
8. CN(C)C/C=C/C(=O)Nc1ccc(C(=O)N2CCCC(Nc3ncc(Cl)c(-c4c[nH]c5ccccc45)n3)C2)cc1 (configuration not stated)

Result:
97
95
98
96
97
99
96
97

Dear colleague, could you send me Population Normal (%) for each of the items below? Thanks.
1. OCCCNc1cc(-c2ccnc(Nc3cccc(Cl)c3)n2)ccn1
2. COCCn1c(C)c(C)s/c1=N\C(=O)C1C(C)(C)C1(C)C
3. COc1ccc2[nH]c(I)c(CCNC(C)=O)c2c1 [IODOMELATONIN]
4. COc1cc(Nc2ncc3c(n2)-c2ccc(Cl)cc2C(c2c(F)cccc2OC)=NC3)ccc1C(=O)O [ALISERTIB]
5. CCCCCCNC(=O)Nc1ccc(S(=O)(=O)Nc2ccc(CCNC[C@H](O)COc3ccc(O)cc3)cc2)cc1 [L-755507]
6. CC(C)(O)C(=O)N1CCN(c2ccc(C(F)(F)F)c(C3=C(c4c[nH]c5ccccc45)C(=O)NC3=O)c2)CC1
7. C[C@@H]1CC(=O)Nc2cccc(-c3ccc4c(c3)c(-c3cnn(C)c3)nn4C)c2N1

Result:
1. 95
2. 99
3. 97
4. 98
5. 98
6. 97
7. 98

Dear colleague, could you send me Population Normal (%) for each of the items below? Thanks.
1. Cc1c(Cc2ccc3ccccc3n2)c2cc(F)ccc2n1CC(=O)O [TIMAPIPRANT]
2. CN1C[C@H](C(=O)N[C@]2(C)O[C@@]3(O)[C@@H]4CCCN4C(=O)[C@H](Cc4ccccc4)N3C2=O)C[C@@H]2c3cccc4[nH]cc(c34)C[C@H]21.CS(=O)(=O)O [DIHYDROERGOTAMINE MESYLATE]
3. Cn1cc(C(=O)OCC2CCN(CCNS(C)(=O)=O)CC2)c2ccccc21
4. CC(C)C[C@@H]1NC(=O)[C@@H](C(C)C)NC(=O)[C@@H]2CCCN2C(=O)[C@@H](CC(=O)O)NC(=O)[C@@H](Cc2c[nH]c3ccccc23)NC1=O [BQ-123] (cyclo(L[dW][dD]P[dV]))

Result:
1: 94; 2: 98; 3: 98; 4: 100
